readout.type: melting point

Which measured melting point value corresponds to CCC(C)c1onc(N2C(=O)C(Cl)=C(C)C2O)c1C#N (stereo not shown) [A49] ?
107 to 109 °C

Subsequent entry: COC1=C(Cl)CN(c2cc(C(C)(C)C)on2)C1=O [E3]
94 to 106 °C

###

tested on: a variety of test species; experiment: Pre-emergence herbicidal activity (glasshouse, sprayed one day after sowing, evaluated after 13 days); type: in vivo; details: ECHCG, application pre-emergence, rate 1000 g/Ha, scale 0-5
Pre-emergence herbicidal damage score, ECHCG overview
Enter the number alone.

CCC(C)(C)c1onc(N2CC(C)=C(OC)C2=O)c1C#N	4
CCC1=C(Cl)C(=O)N(c2noc(C(C)(C)CC)c2C#N)C1O (stereo not drawn)	4
CCCC1=C(Cl)C(=O)N(c2cc(C(C)(C)C)on2)C1O (stereo not drawn)	5
CCCC(C)(C)c1cc(N2C(=O)C(Cl)=C(C)C2O)no1 (stereo not drawn)	5
CC1=C(Cl)C(=O)N(c2cc(C3(C)CC3)on2)C1O (stereo not drawn)	5

Which measured Pre-emergence herbicidal damage score, ECHCG value corresponds to CC1=C(Cl)C(=O)N(c2cc(CC(C)C)on2)C1O (stereo not drawn) ?
5

Subsequent entry: CCCC1=C(Cl)C(=O)N(c2cc(C(C)(C)C#N)on2)C1O (stereo not drawn)
5

Subsequent entry: CC1=C(Cl)C(=O)N(c2noc(C(C)(C)C)c2C#N)C1OC(=O)C(C)(C)C (stereo not drawn)
5

Subsequent entry: COC1=C(C)C(=O)N(c2cc(C(C)(C)C)on2)C1O (stereo not drawn)
5

Subsequent entry: CC1=C(Cl)C(=O)N(c2cc(C(C)(C)C)on2)C1OC(=O)Oc1ccccc1 (stereo not drawn)
5

Subsequent entry: CC(C)(C)c1cc(N2C(=O)C(Cl)=C(NCC3CC3)C2O)no1 (stereo not drawn)
5

Subsequent entry: CC1=C(Cl)C(=O)N(c2cc(C(C)(C)C)on2)C1OC(=O)OCC(C)(C)C (stereo not drawn)
5
